Value source: the supplement of paper PMC11780869

- System: Bacillus subtilis
- test: cleaved RNA product abundance (RNA/gDNA barcode ratio) relative to median wild-type variant (ratio to wild type); higher = more accumulation of the downstream cleavage product
- applied conditions: experiment (reporter, strain, medium): exp 2b: truncated aprE reporter, strain BJT200; cleavage site: cggR-gapA (positions -7 to +36 mutated)
# Lookup of reported cleaved RNA product abundance keyed by entry
Enter the number alone.

{"query sequence": "ACAGACGAAGGAGCCGCAAAGAAGTTATTAAGGGATGAAGAATCCTTCAATATAAATATCTCTCACTTATTTAAA", "cleaved RNA product abundance": 0.265}
{"query sequence": "ACAGACGAAGGAGCCGCAAAGAAGTTATTAATGGATGAATAATCCCTCAATAAAAATATCTCTCACTTATTTAAA", "cleaved RNA product abundance": 0.136}
{"query sequence": "ACAGACGAAGGAGCCGCAAAGAAGTTATTAAGGGATGAATAATCTCTCAATATAAAAATCTCTCACTTATTTAAA", "cleaved RNA product abundance": 0.464}
{"query sequence": "ACAGACGAAGGAGCCGCAAACAAGTTACTAAGGGATGAATAATCCCTCAATATAAATATCTCTCACTTATTTAAA", "cleaved RNA product abundance": 0.169}
{"query sequence": "ACAGACGAAGGAGCCGCAAAGAAGATATTAAGGTATGAATAATCCCTCAATATAAATATCTCTCACTTATTTAAA", "cleaved RNA product abundance": 0.104}

Tell me measured cleaved RNA product abundance for ACAGACGAAGGAGCCGCAAAGAATTTATTAAGAGATGAATAATCCCTCAATATAAATATCTCTCACTTATTTAAA please.
0.112

Tell me measured cleaved RNA product abundance for ACAGACGAAGGAGCCGCACAGAAGTTATTAACGGATGAATAATCCCTCAATATAAATATCTCTCACTTATTTAAA please.
0.121

Tell me measured cleaved RNA product abundance for ACAGACGAAGGAGCCGCAAAGAAGTTATTAAGGGATGATAAATCCCTCAATATAAATATCTCTCACTTATTTAAA please.
0.648

====

# Lookup of reported cleaved RNA product abundance keyed by entry
- Tested on: Bacillus subtilis
- test: cleaved RNA product abundance (RNA/gDNA barcode ratio) relative to median wild-type variant (ratio to wild type); higher = more accumulation of the downstream cleavage product
- applied conditions: experiment (reporter, strain, medium): exp 4a: truncated aprE reporter, strain BJT201 with 2% xylose (RNase J1 expressed); cleavage site: cggR-gapA (positions -7 to +36 mutated)
Enter the number alone.

Guide cases for cleaved RNA product abundance, answers given:
{"query sequence": "ACAGACGAAGGAGCCGCAAAGAAGTTTTTAAGGGATGAATAATCCCTCAATATAAACATCTCTCACTTATTTAAA", "cleaved RNA product abundance": 0.208}
{"query sequence": "ACAGACGAAGGAGCCGCAAAGAATTTATTAAGGCATGAATAATCCCTCAATATAAATATCTCTCACTTATTTAAA", "cleaved RNA product abundance": 0.111}
{"query sequence": "ACAGACGAAGGAGCCGCAAAGAAGTTATTAAGGGATCAATAATCCCTCAATATAAATCTCTCTCACTTATTTAAA", "cleaved RNA product abundance": 0.706}

The record that follows has no cleaved RNA product abundance shown yet.
Tell me measured cleaved RNA product abundance for ACAGACGAAGGAGCCGCAAAGAAGTTATTAAAGGATGAATAATCCCTCAGTATAAATATCTCTCACTTATTTAAA please.
0.122

====

# Lookup of reported cleaved RNA product abundance keyed by entry
- Test system: Bacillus subtilis
- test: cleaved RNA product abundance (RNA/gDNA barcode ratio) relative to median wild-type variant (ratio to wild type); higher = more accumulation of the downstream cleavage product
- applied conditions: experiment (reporter, strain, medium): exp 2b: truncated aprE reporter, strain BJT200; cleavage site: cggR-gapA (positions -7 to +36 mutated)
Enter the number alone.

{"query sequence": "ACAGACGAAGGAGCCGCAAAGAAGATATTAAGGGATCAATAATCCCTCAATATAAATATCTCTCACTTATTTAAA", "cleaved RNA product abundance": 0.501}

Provide cleaved RNA product abundance, recorded with Bacillus subtilis, of ACAGACGAAGGAGCCGCAAAGAAGTTATTAATGGATCAATAATCCCTCAATATAAATATCTCTCACTTATTTAAA
0.0839

Provide cleaved RNA product abundance, recorded with Bacillus subtilis, of ACAGACGAAGGAGCCGCAAATAAATTATTAAGGGATGAATAATCCCTCAATATAAATATCTCTCACTTATTTAAA
0.807

Provide cleaved RNA product abundance, recorded with Bacillus subtilis, of ACAGACGAAGGAGCCGCAAAGAAGTTATTAAGGGATGAATAATCCCTCAATATAAATCTCTCTCACTTATTTAAA
0.652

Provide cleaved RNA product abundance, recorded with Bacillus subtilis, of ACAGACGAAGGAGCCGCAAAGAAGTTATAAAGGCATGAATAATCCCTCAATATAAATATCTCTCACTTATTTAAA
0.122

====

- Test system: Bacillus subtilis
- test: cleaved RNA product abundance (RNA/gDNA barcode ratio) relative to median wild-type variant (ratio to wild type); higher = more accumulation of the downstream cleavage product
- applied conditions: experiment (reporter, strain, medium): exp 2b: truncated aprE reporter, strain BJT200; cleavage site: cggR-gapA (positions -7 to +36 mutated)
# Lookup of reported cleaved RNA product abundance keyed by entry
Enter the number alone.

Guide cases for cleaved RNA product abundance, answers given:
{"query sequence": "ACAGACGAAGGAGCCGCAAAGAAGTTATTAAGGCATGAATAATACCTCAATATAAATATCTCTCACTTATTTAAA", "study target": "Bacillus subtilis", "measured": 0.0988}
{"query sequence": "ACAGACGAAGGAGCCGCATAGAAGTTATTAAGGGATGAATAATCCCTCAATATAAATATCTCTCACTTATTTAAA", "study target": "Bacillus subtilis", "measured": 1}
{"query sequence": "ACAGACGAAGGAGCCGCAAAGAAATTATTAAGAGATGAATAATCCCTCAAAATAAATATCTCTCACTTATTTAAA", "study target": "Bacillus subtilis", "measured": 0.114}

Tell me measured cleaved RNA product abundance for ACAGACGAAGGAGCCGCAAAAAAGTTATTAAGGGATGAATAATTCCTCAATATAAATATCTCTCACTTATTTAAA please.
0.68

Tell me measured cleaved RNA product abundance for ACAGACGAAGGAGCCGCAAAGAAGTTATTAAGGGATGAATAATCCCTCAATATATATAACTCTCACTTATTTAAA please.
0.679

Tell me measured cleaved RNA product abundance for ACAGACGAAGGAGCCGCAAAGAAGTTATTAATGGCTGAATAATCCCTCAATATAAATATCTCTCACTTATTTAAA please.
0.11

Tell me measured cleaved RNA product abundance for ACAGACGAAGGAGCCGCAAAGAAGTTATTAAGGCATGAATAATCCCTCAATATAAATAGCTCTCACTTATTTAAA please.
0.0721

Tell me measured cleaved RNA product abundance for ACAGACGAAGGAGCCGCAAACAAGTTATTCAGGGATGAATAATCCCTCAATATAAATATCTCTCACTTATTTAAA please.
0.495

====

- Tested on: Bacillus subtilis
- test: cleaved RNA product abundance (RNA/gDNA barcode ratio) relative to median wild-type variant (ratio to wild type); higher = more accumulation of the downstream cleavage product
- applied conditions: experiment (reporter, strain, medium): exp 2b: truncated aprE reporter, strain BJT200; cleavage site: cggR-gapA (positions -7 to +36 mutated)
Decision: cleaved RNA product abundance compared against 0.3; not below it gives Condition met, below it gives Condition not met.

Record excerpt, results attached:
{"query sequence": "ACAGACGAAGGAGCCGCAAAAAAGTTATTAAGGAATGAATAATCCCTCAATATAAATATCTCTCACTTATTTAAA", "study target": "Bacillus subtilis", "assigned category": "Condition not met"}
{"query sequence": "ACAGACGAAGGAGCCGCAAAAAAGTTATTATGGGATGAATAATCCCTCAATATAAATATCTCTCACTTATTTAAA", "study target": "Bacillus subtilis", "assigned category": "Condition met"}
{"query sequence": "ACAGACGAAGGAGCCGCAAAGAAGCTATTAAGGGATGAAAAATCCCTCAATATAAATATCTCTCACTTATTTAAA", "study target": "Bacillus subtilis", "assigned category": "Condition met"}
{"query sequence": "ACAGACGAAGGAGCCGCAAAGAAGTTATTAAAGGATGAATAATACCTCAATATAAATATCTCTCACTTATTTAAA", "study target": "Bacillus subtilis", "assigned category": "Condition not met"}

Continue with the next sequence.
Say whether ACAGACGAAGGAGCCGCAAAGAAGTTATTAAGGGATGAATAATCTCTCAATATAAATAACTCTCACTTATTTAAA shows cleaved RNA product abundance of 0.3 or more.
Condition met
